Hello, the source for this data is PubChem BioAssay (NCI), in case you need it.

Test system: M19-MEL melanoma
assay.explanation: NCI tumour cell line growth inhibition, 48 h
# reported TGI; entries follow

compound="CC(C)N(C(=O)C12C3C4C1C1C2C3C41C(O)C(C)(C)C)C(C)C (stereo not drawn)" assay_system="M19-MEL melanoma" reported_result="> 50 µM"
compound="CC1(C)C(=O)C(O)=CC2C1=CCC1C2(C)C(=O)CC2(C)C(C(C)(O)C(=O)CC(O)C(C)(C)O)C(O)CC12C (stereo not drawn)" assay_system="M19-MEL melanoma" reported_result="> 97.2 µM"

Then this compound:
Req: Entry COC(=O)c1ccc2c(c1)C(NC(C)=O)CCc1cc(OC)c(OC)c(OC)c1-2 (stereo not drawn) has what TGI?
Resp: > 100 µM

###

System: HCT-15 colon
assay.explanation: NCI tumour cell line growth inhibition, 48 h
value.type: TGI

Some molecules with recorded TGI:
molecule=O=C1/C(=C/c2ccc(Cl)cc2)CCCc2ccc(F)cc21 reported_result="> 100 µM"
molecule="C#CCOCC12C=CC(O1)C1COC(=O)C12 (stereo not given)" reported_result="> 100 µM"
molecule=O=C(C(=O)c1ccc(Cc2ccc(C(=O)C(=O)c3ccccc3)cc2)cc1)c1ccccc1 reported_result="> 100 µM"
molecule="COc1ccc(C2C(Cl)C(=O)N2n2cnc3ccccc3c2=O)cc1OC (stereo not given)" reported_result="> 100 µM"

Then this molecule:
Req: Entry CC[C@H](C)[C@H](NC(=O)c1cnccn1)C(=O)N(C)[C@H](C[C@@H](OC(C)=O)c1nc(C(=O)N[C@@H](Cc2ccccc2)C[C@H](C)C(=O)OC)cs1)C(C)C has what TGI?
Resp: > 33.3 µM

###

Test system: COLO 205 colon
assay.explanation: NCI tumour cell line growth inhibition, 48 h
value.type: TGI

Req: Entry CS(=O)(=O)c1ccc(Cl)c([N+](=O)[O-])c1 has what TGI?
Resp: 33.2 µM

Req: Entry CCN(CC)c1ccc(NC(=S)NN(C)C)cc1 has what TGI?
Resp: > 10 µM

Req: Entry CNC(=S)NNc1ncnc2c1c(-c1ccc(Cl)cc1)cn2-c1ccc(C)cc1 has what TGI?
Resp: 29.6 µM

Req: Entry COc1cc(-c2csc(NC(=O)c3cc(C(F)(F)F)cc(C(F)(F)F)c3)n2)cc(OC)c1OC has what TGI?
Resp: 7.29 µM

Req: Entry Cc1cc(OCc2nnc3sc(NC(=O)c4ccccc4)nn23)ccc1Cl has what TGI?
Resp: > 100 µM

Req: Entry COC(=O)C1=CCON(c2ccccc2)C1c1ccccc1 (configuration not stated) has what TGI?
Resp: > 100 µM

Req: Entry O=C1N[C@@H]2CCC[C@@H]2[C@@H]1c1ccc(Cl)cc1 has what TGI?
Resp: > 100 µM

Req: Entry O=[N+]([O-])c1ccc(N=Nc2c(O)[nH]c3ccc([N+](=O)[O-])cc23)cc1 has what TGI?
Resp: > 100 µM

Req: Entry N=C(N)SCc1cn2ccccc2n1 has what TGI?
Resp: > 100 µM

Req: Entry COC(=O)c1nc(NN)[nH]c(=O)c1CCCCCc1c(C(=O)OC)[nH]c(NN)cc1=O has what TGI?
Resp: > 100 µM

Req: Entry CC(C)c1ccc2nc3ccc(C(=O)NCCN(C)C)cn3c(=O)c2c1 has what TGI?
Resp: 33.8 µM

Req: Entry Cc1nnc2n1-c1ccccc1N(Cc1ccccc1)CC2 has what TGI?
Resp: > 100 µM

Req: Entry C=C1CC(COc2ccc3c(C)c(C)c(=O)oc3c2C)(c2ccccc2)OC1=O (configuration not stated) has what TGI?
Resp: 3.24 µM
